Cited source: patent US9217014B2

// solubility lookup, one value per entry
experiment: Solubility in aqueous buffers of varying pH; assay type: physicochemical; details: aqueous buffer; pH 4.6 (0.1M acetate buffer); ambient temperature; compound 1 as acetate salt
*1 amine or outer side, *2 acyl side, *3 side chain or, on linkers, in order; H or OH if unused. Where a SMILES comes first, the peptide text is derived from it. Bridges are numbered along the chain shown (N, C = ends). [ ]: non-standard residue; d: D form. The star is where a group is joined. pTerphenylCO(4''-OnC5H11) = CCCCCOc1ccc(-c2ccc(-c3ccc(C(=O)*)cc3)cc2)cc1; Orn(4R-OH,5R-OH) = O=C([C@H](C[C@@H](O)[C@@H](O)N[*:3])N[*:1])[*:2]; hTyr(3S-OH,4S-OH) = N[C@H](C(=O)O)[C@H](O)[C@@H](O)c1ccc(O)cc1; Pro(3S-OH,4S-Me) = C[C@H]1CN[C@H](C(=O)O)[C@H]1O; Hyp = O=C(O)[C@@H]1C[C@@H](O)CN1
RESULT TYPE: solubility

[[record]]
molecule = "CCCCCOc1ccc(-c2ccc(-c3ccc(C(=O)N[C@H]4C[C@@H](O)[C@@H](O)NC(=O)[C@@H]5[C@@H](O)[C@@H](C)CN5C(=O)[C@H]([C@@H](C)O)NC(=O)[C@H]([C@H](O)[C@@H](O)c5ccc(O)cc5)NC(=O)[C@@H]5C[C@@H](O)CN5C(=O)[C@H]([C@@H](C)O)NC4=O)cc3)cc2)cc1 [anidulafungin, reference compound] ({pTerphenylCO(4''-OnC5H11)}-[Orn(4R-OH,5R-OH)]T[Hyp][hTyr(3S-OH,4S-OH)]T[Pro(3S-OH,4S-Me)]; lactam 1-C)"
result_type = "solubility"
result = "< 10 µg/mL"

[[record]]
molecule = "CCCCCOc1ccc(-c2ccc(-c3ccc(C(=O)N[C@H]4C[C@@H](O)C(OCC[N+](C)(C)C)NC(=O)C5[C@@H](O)[C@@H](C)CN5C(=O)C([C@@H](C)O)NC(=O)C([C@H](O)[C@@H](O)c5ccc(O)cc5)NC(=O)C5C[C@@H](O)CN5C(=O)C([C@@H](C)O)NC4=O)cc3)cc2)cc1 (some centres unmarked)"
result_type = "solubility"
result = "> 15000 µg/mL"


---

// Mean log10 CFU/kidneys (±SEM) lookup, one value per entry
test system: C. albicans R303; assay: mouse candidiasis infection model, IP administration, kidney fungal burden; format: in vivo; settings: Fourth run; IP 0.5 mg/kg; kidneys 24 h after infection
*1 amine or outer side, *2 acyl side, *3 side chain or, on linkers, in order; H or OH if unused. Where a SMILES comes first, the peptide text is derived from it. Bridges are numbered along the chain shown (N, C = ends). [ ]: non-standard residue; d: D form. The star is where a group is joined. pTerphenylCO(4''-OnC5H11) = CCCCCOc1ccc(-c2ccc(-c3ccc(C(=O)*)cc3)cc2)cc1; Orn(4R-OH,5R-OH) = O=C([C@H](C[C@@H](O)[C@@H](O)N[*:3])N[*:1])[*:2]; hTyr(3S-OH,4S-OH) = N[C@H](C(=O)O)[C@H](O)[C@@H](O)c1ccc(O)cc1; Pro(3S-OH,4S-Me) = C[C@H]1CN[C@H](C(=O)O)[C@H]1O; Hyp = O=C(O)[C@@H]1C[C@@H](O)CN1
RESULT TYPE: Mean log10 CFU/kidneys (±SEM) (log10 CFU/kidneys)

[[record]]
compound = "CCCCCOc1ccc(-c2ccc(-c3ccc(C(=O)N[C@H]4C[C@@H](O)C(NCCN)NC(=O)C5[C@@H](O)[C@@H](C)CN5C(=O)C([C@@H](C)O)NC(=O)C([C@H](O)[C@@H](O)c5ccc(O)cc5)NC(=O)C5C[C@@H](O)CC5C(=O)C([C@@H](C)O)NC4=O)cc3)cc2)cc1 (stereo partly drawn) [compound 15]"
study_system = "C. albicans R303"
unit_descriptor = "log10 CFU/kidneys"
numeric_value = 2.09

[[record]]
compound = "CCCCCOc1ccc(-c2ccc(-c3ccc(C(=O)N[C@H]4C[C@@H](O)C(NCCNCCO)NC(=O)C5[C@@H](O)[C@@H](C)CN5C(=O)C([C@@H](C)O)NC(=O)C([C@H](O)[C@@H](O)c5ccc(O)cc5)NC(=O)C5C[C@@H](O)CC5C(=O)C([C@@H](C)O)NC4=O)cc3)cc2)cc1 (stereo partly drawn) [compound 18]"
study_system = "C. albicans R303"
unit_descriptor = "log10 CFU/kidneys"
numeric_value = 2.54

[[record]]
compound = "CCCCCOc1ccc(-c2ccc(-c3ccc(C(=O)N[C@H]4C[C@@H](O)C(NCCOCCN)NC(=O)C5[C@@H](O)[C@@H](C)CN5C(=O)C([C@@H](C)O)NC(=O)C([C@H](O)[C@@H](O)c5ccc(O)cc5)NC(=O)C5C[C@@H](O)CC5C(=O)C([C@@H](C)O)NC4=O)cc3)cc2)cc1 (stereo partly drawn) [compound 12]"
study_system = "C. albicans R303"
unit_descriptor = "log10 CFU/kidneys"
numeric_value = 3.20

[[record]]
compound = "CCCCCOc1ccc(-c2ccc(-c3ccc(C(=O)N[C@H]4C[C@@H](O)C(NCCOCCO)NC(=O)C5[C@@H](O)[C@@H](C)CN5C(=O)C([C@@H](C)O)NC(=O)C([C@H](O)[C@@H](O)c5ccc(O)cc5)NC(=O)C5C[C@@H](O)CN5C(=O)C([C@@H](C)O)NC4=O)cc3)cc2)cc1 (stereo partly drawn) [compound 11]"
study_system = "C. albicans R303"
unit_descriptor = "log10 CFU/kidneys"
numeric_value = 4.82

[[record]]
compound = "CCCCCOc1ccc(-c2ccc(-c3ccc(C(=O)N[C@H]4C[C@@H](O)[C@@H](O)NC(=O)[C@@H]5[C@@H](O)[C@@H](C)CN5C(=O)[C@H]([C@@H](C)O)NC(=O)[C@H]([C@H](O)[C@@H](O)c5ccc(O)cc5)NC(=O)[C@@H]5C[C@@H](O)CN5C(=O)[C@H]([C@@H](C)O)NC4=O)cc3)cc2)cc1 [anidulafungin, reference compound] ({pTerphenylCO(4''-OnC5H11)}-[Orn(4R-OH,5R-OH)]T[Hyp][hTyr(3S-OH,4S-OH)]T[Pro(3S-OH,4S-Me)]; lactam 1-C)"
study_system = "C. albicans R303"
unit_descriptor = "log10 CFU/kidneys"
numeric_value = 3.81

[[record]]
compound = "CCCCCOc1ccc(-c2ccc(-c3ccc(C(=O)N[C@H]4C[C@@H](O)C(NCCOCCOCCOCCN)NC(=O)C5[C@@H](O)[C@@H](C)CN5C(=O)C([C@@H](C)O)NC(=O)C([C@H](O)[C@@H](O)c5ccc(O)cc5)NC(=O)C5C[C@@H](O)CC5C(=O)C([C@@H](C)O)NC4=O)cc3)cc2)cc1 (stereo partly drawn) [compound 14]"
study_system = "C. albicans R303"
unit_descriptor = "log10 CFU/kidneys"
numeric_value = 4.74

